Some compounds, each annotated with its measured Activity.
tested on: Aorta; assay: Cardiotoxicity in rat aortic ring assessed as relaxation of phenylephrine induced aortic ring contraction at 10 uM incubated for 1 hr; assay type: toxicity, tissue-based; set-up: scale not given: the % may be the effect or the level left

chem smiles: CC(C)C[C@](C)(N)COc1ncc(-c2ccnc(C(F)F)c2)cc1C#N
units: %
Activity: 50

chem smiles: CC(C)C[C@](C)(N)COc1ccc(-c2ccnc(C(F)F)c2)nc1Cl
units: %
Activity: 64

chem smiles: Cc1cc(-c2ccc(OC[C@@](C)(N)CC(C)C)c(C(F)F)n2)ccn1
units: %
Activity: 26

chem smiles: CC(C)C[C@](C)(N)COc1ccc(-c2ccnc(Cl)c2)nc1C(F)F
units: %
Activity: 59

chem smiles: CC(C)C[C@](C)(N)COc1ccc(-c2ccnc(C(F)F)c2)cc1C#N
units: %
Activity: 100

chem smiles: CC(C)C[C@](C)(N)COc1ccc(-c2ccnc(C(F)F)c2)nc1C(F)F
units: %
Activity: 42

chem smiles: Cc1cc(-c2ccc(OC[C@@](C)(N)CC(C)C)c(C(F)F)c2)ccn1
units: %
Activity: 57

chem smiles: Cc1cc(-c2cnc(OC[C@@](C)(N)CC(C)C)c(C#N)c2)ccn1
units: %
Activity: 28

chem smiles: Cc1cc(-c2ccc(OC[C@@](C)(N)CC(C)C)c(C(F)(F)F)c2)ccn1
units: %
Activity: 69

chem smiles: Cc1cc(-c2ccc(OC[C@@](C)(N)CC(C)C)c(C)n2)ccn1
units: %
Activity: 1

chem smiles: CC(C)C[C@](C)(N)COc1ccc(-c2ccnc(C(F)F)c2)cc1C(F)F
units: %
Activity: 84

The measurements presented in this section are drawn from ChEMBL document CHEMBL5046296.
